ASSAY_EXPLANATION: Stability of linkers L1-L4 conjugated to FGF21 (LC-MS)
Format: physicochemical
APPLIED_CONDITIONS: +4° C., 72 hrs
Recorded measurements of +(1) H2O, one per entry

{"MOLECULE": "L1-FGF21ΔH-A129C: Linker-1 conjugated to FGF21ΔH-A129C protein (Table 4; Table 5 row L1) (conjugate, UniProt Q9NSA1 29-209, looked up, variant H1* A129C, Linker-1 attached) Fibroblast growth factor 21: PIPDSSPLLQFGGQVRQRYLYTDDAQQTEAHLEIREDGTVGGAADQSPESLLQLKALKPGVIQILGVKTSRFLCQRPDGALYGSLHFDPEACSFRELLLEDGYNVYQSEAHGLPLHLPGNKSPHRDPCPRGPARFLPLPGLPPALPEPPGILAPQPPDVGSSDPLSMVGPSQGRSPSYAS", "+(1) H2O, %": 35}
{"MOLECULE": "L2-FGF21ΔH-A129C: Linker-2 conjugated to FGF21ΔH-A129C protein (Table 4; Table 5 row L2) (conjugate, UniProt Q9NSA1 29-209, looked up, variant H1* A129C, Linker-2 attached) Fibroblast growth factor 21: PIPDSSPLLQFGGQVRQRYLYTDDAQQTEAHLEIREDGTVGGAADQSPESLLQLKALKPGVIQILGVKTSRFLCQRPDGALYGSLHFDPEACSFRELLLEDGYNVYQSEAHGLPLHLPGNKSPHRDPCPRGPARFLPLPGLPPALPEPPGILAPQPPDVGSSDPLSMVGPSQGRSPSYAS", "+(1) H2O, %": 32}
{"MOLECULE": "L3-FGF21ΔH-A129C: Linker-3 conjugated to FGF21ΔH-A129C protein (Table 4; Table 5 row L3) (conjugate, UniProt Q9NSA1 29-209, looked up, variant H1* A129C, Linker-3 attached) Fibroblast growth factor 21: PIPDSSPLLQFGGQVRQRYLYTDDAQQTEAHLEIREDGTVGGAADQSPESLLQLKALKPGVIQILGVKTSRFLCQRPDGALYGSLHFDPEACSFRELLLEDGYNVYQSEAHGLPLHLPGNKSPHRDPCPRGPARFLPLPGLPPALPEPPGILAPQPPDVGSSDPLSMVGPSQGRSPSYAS", "+(1) H2O, %": 30}
